Source of measurements: ChEMBL document CHEMBL1136383

molecular target: Plasminogen activator inhibitor 1 (Homo sapiens, UniProt P05121); test: Inhibitory activity against plasminogen activator inhibitor 1 (PAI-1) was evaluated by inhibition of tissue plasminogen activator/PAI-1 complex formation in t-PA-induced fibrin clot lysis assay
Sequence (P05121 whole entry): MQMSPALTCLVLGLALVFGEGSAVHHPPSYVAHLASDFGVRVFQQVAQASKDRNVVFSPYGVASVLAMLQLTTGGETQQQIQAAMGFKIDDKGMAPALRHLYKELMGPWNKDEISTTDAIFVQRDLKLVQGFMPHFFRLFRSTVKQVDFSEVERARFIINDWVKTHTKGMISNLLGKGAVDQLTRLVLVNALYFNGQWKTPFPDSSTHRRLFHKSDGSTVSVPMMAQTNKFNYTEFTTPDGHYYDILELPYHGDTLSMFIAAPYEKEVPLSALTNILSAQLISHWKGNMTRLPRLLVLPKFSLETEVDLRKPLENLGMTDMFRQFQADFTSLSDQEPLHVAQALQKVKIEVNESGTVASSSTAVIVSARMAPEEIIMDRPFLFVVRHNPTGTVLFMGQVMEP
PROPERTY_MEASURED: log10 IC50 (log10 of the value in nM)

# SMILES, STUDY_TARGET, log10 IC50
data = [
    ("O=C(O)/C(=C/c1sc2cc(OCc3ccc(Sc4ccccc4)cc3)c(OCc3ccc(Sc4ccccc4)cc3)cc2c1Oc1ccc(Cl)cc1)c1ccncc1", "Plasminogen activator inhibitor 1 (Homo sapiens, UniProt P05121)", 1.59),
    ("COc1ccc(-c2ccc(COc3cc4sc(/C=C(/C(=O)O)c5ccncc5)c(Oc5ccc(Cl)cc5)c4cc3OCc3ccc(-c4ccc(OC)cc4)cc3)cc2)cc1", "Plasminogen activator inhibitor 1 (Homo sapiens, UniProt P05121)", 2.15),
    ("O=C(O)/C(=C/c1sc2cc(OCc3ccc(Cc4ccccc4)cc3)c(OCc3ccc(Cc4ccccc4)cc3)cc2c1Oc1ccc(Cl)cc1)c1ccncc1", "Plasminogen activator inhibitor 1 (Homo sapiens, UniProt P05121)", 2.43),
    ("CN(C)CCSc1ccc(/C=c2\\[nH]c(=O)/c(=C/c3ccccc3)[nH]c2=O)s1", "Plasminogen activator inhibitor 1 (Homo sapiens, UniProt P05121)", 5.03),
    ("O=C(O)/C(=C/c1sc2cc(OCc3ccc(-c4ccccc4)cc3)c(OCc3ccc(-c4ccccc4)cc3)cc2c1Oc1ccc(Cl)c(F)c1)c1ccncc1", "Plasminogen activator inhibitor 1 (Homo sapiens, UniProt P05121)", 3.36),
    ("O=C(O)/C(=C/c1sc2cc(OCc3ccc(-c4ccccc4)cc3)c(OCc3ccc(-c4ccccc4)cc3)cc2c1Oc1ccccc1)c1ccncc1", "Plasminogen activator inhibitor 1 (Homo sapiens, UniProt P05121)", 2.00),
    ("COC(=O)/C(=C/c1sc2cc(OCc3ccccc3)c(OCc3ccccc3)cc2c1Oc1ccc(Cl)cc1)c1ccncc1", "Plasminogen activator inhibitor 1 (Homo sapiens, UniProt P05121)", 2.67),
]
